# credit: the NIST ThermoML archive (doi:10.1021/je101316g)

- test.settings: 323.15 K; 101.33 kPa; Liquid; Vibrating tube method
measured.metric: mass density (kg/m3)

{"molecule": "CCCCC(CC)COC(=O)CC(C(=O)OCC(CC)CCCC)S(=O)(=O)[O-].CCCCCC[n+]1ccn(CCC#N)c1 (stereo not given)", "mass density, kg/m3": 1071.3}
{"molecule": "CCCCCCn1cc[n+](CCC#N)c1.O=S(=O)([O-])C(F)(F)F", "mass density, kg/m3": 1267.4}
{"molecule": "CCCCCCCCCCCCOS(=O)(=O)[O-].CCCCCCn1cc[n+](CCC#N)c1 [3-(2-cyanoethyl)-1-hexyl-1H-imidazolium dodecyl sulfate]", "mass density, kg/m3": 1081.5}
{"molecule": "CCCCCCn1cc[n+](CCC#N)c1.O=S(=O)([O-])c1ccccc1 [3-(2-cyanoethyl)-1-hexyl-1H-imidazolium benzenesulfonate]", "mass density, kg/m3": 1206.3}
{"molecule": "CCCCCCn1cc[n+](CCC#N)c1.O=C([O-])c1cccc(S(=O)(=O)O)c1 [3-(2-cyanoethyl)-1-hexyl-1H-imidazolium 3-sulfobenzoate]", "mass density, kg/m3": 1228.2}

----------
- test.settings: 308.15 K; 101.33 kPa; Liquid
measured.metric: viscosity (mPa·s)

{"molecule": "CCCCCCn1cc[n+](CCC#N)c1.O=C([O-])c1cccc(S(=O)(=O)O)c1 [3-(2-cyanoethyl)-1-hexyl-1H-imidazolium 3-sulfobenzoate]", "measured.metric": "viscosity", "observed": 4765.8}

1: CCCCC(CC)COC(=O)CC(C(=O)OCC(CC)CCCC)S(=O)(=O)[O-].CCCCCC[n+]1ccn(CCC#N)c1 (stereo not given)
2: CCCCCCn1cc[n+](CCC#N)c1.O=S(=O)([O-])C(F)(F)F
3: CCCCCCCCCCCCOS(=O)(=O)[O-].CCCCCCn1cc[n+](CCC#N)c1 [3-(2-cyanoethyl)-1-hexyl-1H-imidazolium dodecyl sulfate]
4: CCCCCCn1cc[n+](CCC#N)c1.O=S(=O)([O-])c1ccccc1 [3-(2-cyanoethyl)-1-hexyl-1H-imidazolium benzenesulfonate]
Ranking field: viscosity; order: falling. State the ranking by listing the labels in the requested order.
1, 3, 4, 2
(1: 7571.4 mPa·s, 3: 5185.2 mPa·s, 4: 1795.1 mPa·s, 2: 648.5 mPa·s)

----------
- test.settings: 308.15 K; 101.33 kPa; Liquid; Vibrating tube method
measured.metric: mass density (kg/m3)

{"molecule": "CCCCCCCCCCCCOS(=O)(=O)[O-].CCCCCCn1cc[n+](CCC#N)c1 [3-(2-cyanoethyl)-1-hexyl-1H-imidazolium dodecyl sulfate]", "mass density / kg/m3": 1091.2}
{"molecule": "CCCCCCn1cc[n+](CCC#N)c1.O=S(=O)([O-])c1ccccc1 [3-(2-cyanoethyl)-1-hexyl-1H-imidazolium benzenesulfonate]", "mass density / kg/m3": 1216.1}
{"molecule": "CCCCCCn1cc[n+](CCC#N)c1.O=S(=O)([O-])C(F)(F)F", "mass density / kg/m3": 1278.3}
{"molecule": "CCCCC(CC)COC(=O)CC(C(=O)OCC(CC)CCCC)S(=O)(=O)[O-].CCCCCC[n+]1ccn(CCC#N)c1 (stereo not given)", "mass density / kg/m3": 1081.8}
{"molecule": "CCCCCCn1cc[n+](CCC#N)c1.O=C([O-])c1cccc(S(=O)(=O)O)c1 [3-(2-cyanoethyl)-1-hexyl-1H-imidazolium 3-sulfobenzoate]", "mass density / kg/m3": 1238}
